Phage binding ELISA signal, Anti-PSMA Fab for assorted binders
target: T1, PSMA Fab (006 PSMA Fab) (biotinylated (site not given)); experiment: clonal phage ELISA; biotinylated PSMA Fab on neutravidin plate, blocking buffer alone; anti-M13 HRP detection;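 further: crude clonal phage supernatants added without washing to wells pretreated with blocking buffer with or without PSMA antigen, short incubation, then washed before detecting bound phage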
T1 construct: also called Anti-PSMA Fab; anti-PSMA Fab
Where no end group is shown, it is not given here.
parameter: Phage binding ELISA signal, Anti-PSMA Fab

[[record]]
binder = "PERMCVPQWMCTVT (cysteine pairing not given here; also: displayed on phage pIII, linker not given here, Clonal phage of the Peptide-180 library, tested as crude phage supernatant; not shown: pIII filament protein of the bacteriophage) [Phage-2644]"
result_number = 0.956

[[record]]
binder = "LVKWCIPDWMCSLS (cysteine pairing not given here; also: displayed on phage as pIII fusion, fusion junction and sequence not given here, Clonal phage of the Peptide-180 library, tested as crude phage supernatant; not shown: pIII filament protein of the bacteriophage) [Phage-2647]"
result_number = 0.952

[[record]]
binder = "QPKWCTPDWMCTGI (cysteine pairing not given here; also: displayed on phage as pIII fusion, fusion junction and sequence not given here, Clonal phage of the Peptide-180 library, tested as crude phage supernatant; not shown: pIII filament protein of the bacteriophage) [Phage-2646]"
result_number = 0.954

[[record]]
binder = "WAKWCTPVWMCQGI (cysteine pairing not given here; also: displayed on phage pIII, linker not given here, Clonal phage of the Peptide-180 library, tested as crude phage supernatant; not shown: pIII filament protein of the bacteriophage) [Phage-2638]"
result_number = 0.961

